Hey, just so you know, these numbers are from ChEMBL document CHEMBL5725459.

- ASSAYED SYSTEM: C-X-C chemokine receptor type 3 (Homo sapiens, UniProt P49682)
- Sequence (P49682 whole entry): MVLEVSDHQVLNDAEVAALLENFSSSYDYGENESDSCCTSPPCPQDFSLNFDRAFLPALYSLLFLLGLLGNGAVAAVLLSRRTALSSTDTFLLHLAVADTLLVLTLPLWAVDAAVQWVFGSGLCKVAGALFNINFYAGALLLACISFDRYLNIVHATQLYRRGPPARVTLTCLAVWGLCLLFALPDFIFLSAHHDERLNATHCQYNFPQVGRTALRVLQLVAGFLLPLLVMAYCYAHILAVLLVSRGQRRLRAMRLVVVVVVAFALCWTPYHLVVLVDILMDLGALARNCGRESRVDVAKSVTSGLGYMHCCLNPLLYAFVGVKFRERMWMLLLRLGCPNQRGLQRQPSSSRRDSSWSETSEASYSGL
- TEST DETAILS: Receptor Internalization Assay (RIA): Stock solutions of test compounds are made up at a concentration of 10 mM in DMSO, and serially diluted in PBS containing 0.5% BSA to concentrations required for inhibition dose response curves. Diluted compounds are then mixed with an equal volume of CXCL10 (Peprotech) diluted in PBS. Anticoagulated venous human whole blood is added to the mixture, which is then incubated in a CO2 incubator at 37° C. to allow for ligand mediated receptor internalization (final CXCL10 concentration is 9 nM). After 30 min, the blood is mixed with fluorescently labeled CXCR3 and CD4 specific antibodies (Becton Dickinson) and incubated on ice for 10 minutes. Samples are then mixed with BD FACS Lysing Solution (Becton Dickinson) in order to eliminate red blood cells. After washing the cells with PBS containing 0.5% BSA, the samples are then analyzed in a flow cytometer (FACS Canto II, Becton Dickinson). For data analysis using FACSDiva software (Becton Dickinson), the mean fluorescence corresponding to CXCR3 cell surface expression was determined on CD4 positive cells. The calculated IC50 values may fluctuate depending on the daily assay performance. Fluctuations of this kind are known to those skilled in the art. In the case where IC50 values have been determined several times for the same compound, mean values are given.
MEASUREMENT TYPE: pIC50
Note on pIC50: it is the negative log10 of concentration, concentration in mol/L.

# count of solved cases: 3
> print(dat)
                                   compound  value.observed
1  Cc1ncn(CC(=O)N2C(C)CNCC2c2sc(C(F)(F)F)cc2-c2cnc(C3CC3)nc2)n1 (stereo not drawn)            6.34
2  Cc1ncn(CC(=O)N2C(C)CNCC2c2sc(C(F)(F)F)cc2-c2cnc(C(F)(F)F)nc2)n1 (stereo not drawn)            6.72
3  CCc1ncn(CC(=O)N2C(C)CNCC2c2sc(C(F)(F)F)cc2-c2cnc(C3CC3)nc2)n1 (stereo not drawn)            6.72

Ask: What pIC50 value was documented for this compound, CCOc1ncc(-c2cc(C(F)(F)F)sc2C2CNCC(C)N2C(=O)Cn2cnc(COC)n2)cn1 (stereo not drawn) ?
Reply: 6.02

Ask: Also CC(C)c1ncn(CC(=O)N2C(C)CNCC2c2sc(C(F)(F)F)cc2-c2cnc(C(F)(F)F)nc2)n1 (stereo not drawn) , if possible.
Reply: 6.76

Ask: Also CCc1ncn(CC(=O)N2C(C)CNCC2c2sc(C(F)(F)F)cc2-c2cnc(C(F)(F)F)nc2)n1 (stereo not drawn) , if possible.
Reply: 6.83

Ask: Also CC1CNCC(c2sc(C(F)(F)F)cc2-c2cnc(C(F)(F)F)nc2)N1C(=O)Cn1cnc(C(C)(C)C)n1 (stereo not drawn) , if possible.
Reply: 6.46

Ask: Also CC1CNCC(c2sc(C(F)(F)F)cc2-c2cnc(C(F)(F)F)nc2)N1C(=O)Cn1cnc(C(N)=O)n1 (stereo not drawn) , if possible.
Reply: 5.77
